target_system: UniProt:P49841
Sequence (P49841 whole entry, species assumed): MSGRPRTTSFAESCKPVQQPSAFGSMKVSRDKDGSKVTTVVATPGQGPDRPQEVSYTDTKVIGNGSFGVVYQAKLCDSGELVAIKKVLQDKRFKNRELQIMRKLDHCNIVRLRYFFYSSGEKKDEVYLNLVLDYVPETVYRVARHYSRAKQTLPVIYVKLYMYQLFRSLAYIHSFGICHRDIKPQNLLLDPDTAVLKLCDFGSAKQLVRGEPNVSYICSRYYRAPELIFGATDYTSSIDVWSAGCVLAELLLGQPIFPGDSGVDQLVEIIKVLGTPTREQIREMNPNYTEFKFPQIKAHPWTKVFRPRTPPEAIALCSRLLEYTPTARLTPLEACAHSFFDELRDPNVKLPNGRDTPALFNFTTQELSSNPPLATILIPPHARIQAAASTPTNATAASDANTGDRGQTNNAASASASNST
assay_text: GSK3beta assay (SPA, biotinylated phosphorylated CREB peptide, ATP-P33)
Assay type: biochemical
experimental_setup: -log IC50 (M); 19 nM GSK3β, 5 μM biotinylated phosphorylated CREB peptide, 1 μM ATP, 25° C., one hour
measured_attribute: IC50 (M)

Field: example entries. Status: answers known.
Enquiry: Entry N#Cc1ccc(COc2cc(Nc3nccc(C(N)=O)n3)ccc2C#N)cc1 [Compound 31] has what IC50?
Return: 9.55e-08

Enquiry: Subsequent entry: NC(=O)c1ccnc(Nc2cccc(OCc3ccccc3)c2)n1 [Compound 25]
Return: 9.12e-08

Enquiry: What do you have for N#Cc1ccc(Nc2nccc(C(N)=O)n2)cc1OCCOc1ccc(F)cc1F [Compound 17] ?
Return: 2.45e-07

Enquiry: Also check Cc1ccccc1COc1cc(Nc2nccc(C(N)=O)n2)ccc1C#N [Compound 34]
Return: 1.78e-07

Enquiry: Another compound to look at: CN(C)S(=O)(=O)Nc1cccc(COc2cc(Nc3nccc(C(N)=O)n3)ccc2C#N)c1 [Compound 8]
Return: 2.09e-08

Enquiry: Then N#Cc1ccc(Nc2nccc(C(N)=O)n2)cc1OCc1cccc(C(F)(F)F)c1 [Compound 36] ?
Return: 4.07e-07

Enquiry: Same question for N#Cc1ccc(Nc2nccc(C(N)=O)n2)cc1OCCC1COc2ccccc2O1 (stereo not shown) [Compound 14] please.
Return: 1.38e-07

Enquiry: Now give it for COc1ccccc1COc1cc(Nc2nccc(C(N)=O)n2)ccc1C#N [Compound 30] too.
Return: 4.68e-08

Enquiry: Next compound up: N#Cc1ccc(Nc2nccc(C(N)=O)n2)cc1OCC1CC(c2cccnc2)=NO1 (stereo not shown) [Compound 22]
Return: 2.34e-07

Enquiry: // same read-out, input: N#Cc1ccc(Nc2nccc(C(N)=O)n2)cc1OCc1ccccc1 [Compound 2]
Return: 5.01e-08

1. N#Cc1ccc(Nc2nccc(C(N)=O)n2)cc1OCCN1CCOCC1 [Compound 11]
2. N#Cc1ccc(Nc2nccc(C(N)=O)n2)cc1O/C=C/c1ccccc1 [Compound 15]
Enquiry: Choose between 1 and 2 : whose measured IC50 value is numerically larger? Give the chosen item's label as your response.
Return: 1
(1: 2.63e-07 M, 2: 1.32e-07 M)

P. CCc1noc(COc2cc(Nc3nccc(C(N)=O)n3)ccc2C#N)n1 [Compound 26]
Q. CN(C)CCOc1cc(Nc2nccc(C(N)=O)n2)ccc1C#N [Compound 12]
R. Cc1cc(C)cc(COc2cc(Nc3nccc(C(N)=O)n3)ccc2C#N)c1 [Compound 10]
S. COc1ccc(COc2cc(Nc3nccc(C(N)=O)n3)ccc2C#N)cc1 [Compound 13]
T. N#Cc1ccc(Nc2nccc(C(N)=O)n2)cc1OCc1ccc2ccccc2n1 [Compound 21]
Enquiry: Order the items by recorded IC50; the first position goes to the largest value. // ordering of labels required in reply
Return: Q, P, R, S, T

A. N#Cc1ccc(Nc2nccc(C(N)=O)n2)cc1OCc1cccc2ccccc12 [Compound 23]
B. N#Cc1ccc(Nc2nccc(C(N)=O)n2)cc1OCc1nc2ccccc2s1 [Compound 19]
Enquiry: Lab log: flag the item ( A or B ) with the smaller IC50 figure. # reply format: chosen label
Return: A
(A: 8.13e-08 M, B: 4.57e-07 M)

----------
target_system: UniProtKB P49841
assay_text: GSK3beta assay (SPA, biotinylated phosphorylated CREB peptide, ATP-P33)
Assay type: biochemical
experimental_setup: -log IC50 (M); 19 nM GSK3β, 5 μM biotinylated phosphorylated CREB peptide, 1 μM ATP, 25° C., one hour
Experimental: GSK3beta assays were performed at 25° C. in a 100 μl reaction volume of 25 mM Tris (pH 7.4) containing 10 mM MgCl2, 1 mM DTT, 0.1 mg/ml BSA, 5% glycerol and containing 19 nM GSK3β, 5 μM biotinylated phosphorylated CREB peptide, 1 μM ATP, 2 nM ATP-P^33 and a suitable amount of a test compound of formula (I) or (I′). After one hour, the reaction was terminated by adding 70 μl of Stop mix (1 mM ATP, 18 mg/ml streptavidin coated PVT SPA bead pH 11.0). […]
measured_attribute: IC50 (M)

Enquiry: Requested field: IC50. Item: N#Cc1ccc(Nc2nccc(C(N)=O)n2)cc1 [Compound 29]
Return: 1.48e-07

Enquiry: What would you report for CCn1ccnc1COc1cc(Nc2nccc(C(N)=O)n2)ccc1C#N [Compound 24] ?
Return: 4.79e-08

Enquiry: Also CC(COc1cc(Nc2nccc(C(N)=O)n2)ccc1C#N)Oc1ccc(F)cc1 (stereo not drawn) [Compound 16] ?
Return: 3.89e-08

Enquiry: CNC(=O)c1ccnc(Nc2ccc(C#N)c(OCc3ccccc3)c2)n1 [Compound 3] ?
Return: 5.5e-08

Enquiry: Lookup N#Cc1ccc(Nc2nccc(C(N)=O)n2)cc1OCc1ccc2ccccc2c1 [Compound 38]
Return: 5.5e-08

A. Cc1ccc(COc2cc(Nc3nccc(C(N)=O)n3)ccc2C#N)cc1 [Compound 35]
B. N#Cc1ccc(Nc2nccc(C(N)=O)n2)cc1OCc1cc(C(F)(F)F)cc(C(F)(F)F)c1 [Compound 9]
Enquiry: Please indicate which has the smaller reported IC50: A , or B . Give the label of your selection.
Return: A
(A: 1.55e-07 M, B: 3.8e-07 M)
